Property: IC50; scope: individual compounds
# MEASUREMENT_TARGET: PI3Kβ (Homo sapiens (Human), UniProt P42338)
# Sequence (P42338 whole entry, canonical isoform): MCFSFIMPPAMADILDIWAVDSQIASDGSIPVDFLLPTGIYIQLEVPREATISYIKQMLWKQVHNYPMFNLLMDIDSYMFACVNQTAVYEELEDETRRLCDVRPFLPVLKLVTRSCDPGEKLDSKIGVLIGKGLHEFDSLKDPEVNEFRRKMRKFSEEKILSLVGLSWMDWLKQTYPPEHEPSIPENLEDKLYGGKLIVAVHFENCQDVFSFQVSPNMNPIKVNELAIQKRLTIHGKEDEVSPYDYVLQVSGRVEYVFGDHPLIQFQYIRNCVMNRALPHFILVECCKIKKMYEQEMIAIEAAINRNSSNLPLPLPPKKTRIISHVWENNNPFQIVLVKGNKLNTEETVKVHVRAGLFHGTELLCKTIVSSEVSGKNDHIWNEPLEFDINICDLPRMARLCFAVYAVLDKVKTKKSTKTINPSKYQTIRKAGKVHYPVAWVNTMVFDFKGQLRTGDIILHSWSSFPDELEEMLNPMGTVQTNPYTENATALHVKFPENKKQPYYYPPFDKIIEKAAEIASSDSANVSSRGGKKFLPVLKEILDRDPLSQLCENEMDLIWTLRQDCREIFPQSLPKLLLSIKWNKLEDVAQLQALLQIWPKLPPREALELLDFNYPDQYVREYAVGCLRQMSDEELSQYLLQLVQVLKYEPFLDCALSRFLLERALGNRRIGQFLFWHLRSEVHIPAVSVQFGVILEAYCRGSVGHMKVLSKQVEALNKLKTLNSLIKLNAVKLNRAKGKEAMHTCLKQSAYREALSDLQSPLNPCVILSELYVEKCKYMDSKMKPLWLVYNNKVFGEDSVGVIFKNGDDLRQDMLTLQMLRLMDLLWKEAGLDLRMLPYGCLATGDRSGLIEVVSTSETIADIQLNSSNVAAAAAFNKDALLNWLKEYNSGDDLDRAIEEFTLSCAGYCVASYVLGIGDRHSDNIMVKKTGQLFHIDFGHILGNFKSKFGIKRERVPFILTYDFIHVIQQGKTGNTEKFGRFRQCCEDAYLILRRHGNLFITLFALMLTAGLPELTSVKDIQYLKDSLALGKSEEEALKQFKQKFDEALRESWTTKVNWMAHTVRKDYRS
# Sequence (P27986 whole entry partner, canonical isoform): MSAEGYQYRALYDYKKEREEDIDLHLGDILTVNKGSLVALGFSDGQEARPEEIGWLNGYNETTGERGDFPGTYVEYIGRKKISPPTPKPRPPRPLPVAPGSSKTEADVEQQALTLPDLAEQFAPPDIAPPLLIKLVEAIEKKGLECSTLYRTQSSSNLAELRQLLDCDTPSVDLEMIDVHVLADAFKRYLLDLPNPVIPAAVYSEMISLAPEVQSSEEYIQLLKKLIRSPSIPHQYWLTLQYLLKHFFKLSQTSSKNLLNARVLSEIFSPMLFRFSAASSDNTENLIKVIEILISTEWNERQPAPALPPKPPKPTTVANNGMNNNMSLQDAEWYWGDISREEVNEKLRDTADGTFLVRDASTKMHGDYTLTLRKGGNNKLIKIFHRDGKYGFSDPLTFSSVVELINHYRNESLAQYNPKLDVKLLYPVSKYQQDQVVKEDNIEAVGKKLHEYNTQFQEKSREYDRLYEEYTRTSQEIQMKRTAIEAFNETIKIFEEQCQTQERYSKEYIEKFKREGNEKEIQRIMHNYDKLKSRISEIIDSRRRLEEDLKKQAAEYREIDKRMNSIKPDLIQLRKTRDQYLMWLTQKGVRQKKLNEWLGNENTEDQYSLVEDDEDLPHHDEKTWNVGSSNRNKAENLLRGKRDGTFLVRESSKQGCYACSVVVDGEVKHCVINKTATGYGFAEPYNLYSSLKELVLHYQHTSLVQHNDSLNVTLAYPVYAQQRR
# TEST_DETAILS: PI3K isoform TR-FRET enzymatic assay (PI3Kβ)
# CONDITION_DETAILS: 2× Km ATP, 30 minutes at 25° C.

{"COMPOUND": "Clc1cccc2c(-n3c(-c4cccnc4)nc4c(-c5nnc[nH]5)cc(N5CCOCC5)cc43)ccnc12 [Example 10]", "IC50 / µM": 0.041}
{"COMPOUND": "Clc1cccc2c(-n3c(C4COC4)nc4c(-c5nnc[nH]5)cc(N5CCOCC5)cc43)ccnc12 [Example 113]", "IC50 / µM": 0.017}
{"COMPOUND": "CCc1nc2c(-c3nnc(C)[nH]3)cc(N3CCOCC3)cc2n1-c1c(Cl)cnc2c(Cl)cccc12 [Example 26]", "IC50 / µM": 0.022}
{"COMPOUND": "Cc1nnc(-c2cc(N3CCOCC3)cc3c2nc(C2CC2)n3-c2ccnc3c(Cl)cccc23)[nH]1 [Example 47]", "IC50 / µM": 0.018}
{"COMPOUND": "Cc1nc2c(-c3cnco3)cc(N3CCOCC3)cc2n1-c1ccnc2c(Cl)cccc12 [Example 277]", "IC50 / µM": 0.62}
{"COMPOUND": "Cc1cccc2nccc(-n3c(C)nc4c(-c5nnc[nH]5)cc(N5CCOCC5)cc43)c12 [Example 83]", "IC50 / µM": 0.019}
{"COMPOUND": "Cc1nc2c(-c3cscn3)cc(N3CCOCC3)cc2n1-c1ccnc2c(Cl)cccc12 [Example 270]", "IC50 / µM": 0.036}
{"COMPOUND": "Cc1nc2c(-c3nnc[nH]3)cc(N3CCOCC3)cc2n1-c1ccnc2c(C#N)cccc12 [Example 89]", "IC50 / µM": 0.012}

====

// reported IC50 per item
# MEASUREMENT_TARGET: PI3Kβ (Homo sapiens (Human), UniProt P42338)
# TEST_DETAILS: PI3K isoform TR-FRET enzymatic assay (PI3Kβ)
# CONDITION_DETAILS: 2× Km ATP, 30 minutes at 25° C.

{"MOLECULE": "Cc1cc(-n2c(C)nc3c(-c4cnc[nH]4)cc(N4CCOCC4)cc32)c2c(Cl)ccc(Cl)c2n1 [Example 333]", "RESULT_UNIT": "nM", "IC50": 9}
{"MOLECULE": "CCCc1nc2c(-c3ncco3)cc(N3CCOCC3)cc2n1-c1ccnc2c(Cl)cccc12 [Example 227]", "RESULT_UNIT": "nM", "IC50": 10}
{"MOLECULE": "CCc1nc2c(-c3cnn[nH]3)cc(N3CCOCC3)cc2n1-c1ccnc2c(F)ccc(F)c12 [Example 376]", "RESULT_UNIT": "nM", "IC50": 70}
{"MOLECULE": "Cc1nc[nH]c1-c1cc(N2CCOCC2)cc2c1nc(C)n2-c1ccnc2c(Cl)cccc12 [Example 177]", "RESULT_UNIT": "nM", "IC50": 230}

====

# MEASUREMENT_TARGET: PI3Kβ (Homo sapiens (Human))
# TEST_DETAILS: PI3K isoform TR-FRET enzymatic assay (PI3Kβ)
# CONDITION_DETAILS: 2× Km ATP, 30 minutes at 25° C.
pIC50: −log10 of the molar value.

{"RECORD_SMILES": "Cc1nc2c(-c3cnc(Cl)[nH]3)cc(N3CCOCC3)cc2n1-c1ccnc2c(Cl)c(F)ccc12", "pIC50": 8.22}
{"RECORD_SMILES": "Clc1cccc2c(-n3cnc4c(-c5ncco5)cc(N5CCOCC5)cc43)ccnc12", "pIC50": 8.52}
{"RECORD_SMILES": "Fc1ccc(F)c2c(-n3c(C4CC4)nc4c(-c5nnc(Cl)[nH]5)cc(N5CCOCC5)cc43)ccnc12", "pIC50": 6.68}
{"RECORD_SMILES": "FC(F)c1cc(-n2cnc3c(-c4nnc[nH]4)cc(N4CCOCC4)cc32)c2cccc(Cl)c2n1", "pIC50": 8.40}

====

Property: pIC50; scope: individual compounds
# MEASUREMENT_TARGET: PI3Kβ (Homo sapiens (Human), UniProt P42338)
# TEST_DETAILS: PI3K isoform TR-FRET enzymatic assay (PI3Kβ)
# Assay type: biochemical
# CONDITION_DETAILS: 2× Km ATP, 30 minutes at 25° C.
pIC50: −log10 of the molar value.

{"COMPOUND": "Clc1cccc2c(-n3c(C4CC4)nc4c(-c5ncco5)cc(N5CCOCC5)cc43)ccnc12", "pIC50": 8.00}
{"COMPOUND": "Cc1nc2c(-c3cncs3)cc(N3CCOCC3)cc2n1-c1ccnc2c(Cl)cccc12", "pIC50": 6.38}
{"COMPOUND": "Cc1nc2c(-c3cnc(Cl)[nH]3)cc(N3CCOCC3)cc2n1-c1ccnc2c(F)ccc(F)c12 (atropisomer, axis not shown) [Compound 373]", "pIC50": 6.00}
{"COMPOUND": "COCCc1nc2c(-c3nnc[nH]3)cc(N3CCOCC3)cc2n1-c1ccnc2c(F)cccc12", "pIC50": 7.70}
{"COMPOUND": "Cc1cnc2c(C#N)cccc2c1-n1c(C)nc2c(-c3nnc[nH]3)cc(N3CCOCC3)cc21 (atropisomer, axis not shown) [Compound 374]", "pIC50": 7.66}
{"COMPOUND": "Clc1ncc(-c2cc(N3CCOCC3)cc3c2ncn3-c2ccnc3c(Cl)cccc23)[nH]1", "pIC50": 8.40}
{"COMPOUND": "Cc1nc2c(-c3cnn(C)c3)cc(N3CCOCC3)cc2n1-c1ccnc2c(Cl)cccc12", "pIC50": 5.01}
{"COMPOUND": "Cc1nnc(-c2cc(N3CCOCC3)cc3c2nc(C)n3-c2cc(-c3cscn3)nc3ccccc23)[nH]1", "pIC50": 7.08}
{"COMPOUND": "Cc1nc2c(-c3nnc[nH]3)cc(N3CCOCC3)cc2n1-c1ccnc2c(F)cc(F)cc12", "pIC50": 7.25}
{"COMPOUND": "CCCc1nc2c(-c3cnc[nH]3)cc(N3CCOCC3)cc2n1-c1ccnc2c(Cl)cccc12", "pIC50": 7.89}
{"COMPOUND": "Cc1nc2c(-c3cccc(N(C)C)c3)cc(N3CCOCC3)cc2n1-c1ccnc2c(Cl)cccc12", "pIC50": 5.60}
{"COMPOUND": "CCCc1nc2c(-c3cn[nH]c3)cc(N3CCOCC3)cc2n1-c1ccnc2c(F)ccc(F)c12", "pIC50": 5.96}
{"COMPOUND": "Cc1nc2c(-c3ccco3)cc(N3CCOCC3)cc2n1-c1ccnc2c(Cl)cccc12", "pIC50": 7.57}
{"COMPOUND": "Cc1nc2c(-c3ccnnc3)cc(N3CCOCC3)cc2n1-c1ccnc2c(Cl)cccc12", "pIC50": 5.11}
{"COMPOUND": "Cc1nnc(-c2cc(N3CCOCC3)cc3c2nc(C)n3-c2ccnc3c(Cl)cccc23)[nH]1", "pIC50": 7.64}

====

# MEASUREMENT_TARGET: PI3Kβ (Homo sapiens (Human), UniProt P42338)
# TEST_DETAILS: PI3K isoform TR-FRET enzymatic assay (PI3Kβ)
# CONDITION_DETAILS: 2× Km ATP, 30 minutes at 25° C.
pIC50: −log10 of the molar value.
Where pIC50 equals or exceeds 8, the correct label is YES; where it does not, the label is NO.

{"COMPOUND": "Cc1nc2c(-c3nnc[nH]3)cc(N3CCOCC3)cc2n1-c1c(Cl)cnc2c(F)cccc12 [Example 27]", "CATEGORY_LABEL": "NO"}
{"COMPOUND": "Cc1nc2c(-c3nnc[nH]3)cc(N3CCOCC3)cc2n1-c1ccnc2c(Cl)cccc12 (atropisomer, axis not shown) [Compound 361]", "CATEGORY_LABEL": "YES"}
{"COMPOUND": "CCCc1nc2c(-c3nnc[nH]3)cc(N3CCOCC3)cc2n1-c1ccnc2c(F)cccc12 (atropisomer, axis not shown) [Compound 355]", "CATEGORY_LABEL": "NO"}
{"COMPOUND": "CCCc1nc2c(-c3nnc[nH]3)cc(N3CCOCC3)cc2n1-c1ccnc2cc(F)ccc12 [Example 7]", "CATEGORY_LABEL": "NO"}
{"COMPOUND": "CCCc1nc2c(-c3nnc[nH]3)cc(N3CCOCC3)cc2n1-c1ccnc2c(F)cc(F)cc12 [Example 146]", "CATEGORY_LABEL": "NO"}
{"COMPOUND": "Cc1nc2c(-c3nnc(C(F)(F)F)[nH]3)cc(N3CCOCC3)cc2n1-c1ccnc2c(Cl)cccc12 [Example 136]", "CATEGORY_LABEL": "NO"}
